Biological target: HLA-A*68:02
Test: IEDB peptide-MHC binding, purified MHC/direct/fluorescence; filed as Kd, often an IC50 or EC50 that approximates it; bounds were set here for any values at or beyond the usual limits of such assays
Conditions: source organism: Orthohantavirus tulaense
pKd: −log10 of the molar value.
outcomeMeasure: pKd

>>> datavalue("FMSRKLHRY")
"≤ 4.70"

====

Biological target: HLA-A*23:01
Experiment: IEDB peptide-MHC binding, purified MHC/competitive/radioactivity; filed as Kd, often an IC50 or EC50 that approximates it; bounds were set here for any values at or beyond the usual limits of such assays
Conditions: source organism: Variola virus
pKd: −log10 of the molar value.
outcomeMeasure: pKd

>>> datavalue("QSDTVFDHY")
"≤ 4.11"
